- assayMethodText: Cytotoxicity against rat H9c2 cells assessed as cell viability at 10 uM after 24 hrs by MTT assay relative to control
- Assay type: cell-based
- conditionDetails: read-out: Activity
In plain terms, low viability at 24 h, 10 µM, meaning strictly below 40%, gives YES, and everything else gives NO.

Worked cases, answers included:
Task: Here's an entry: "O=C1/C(=C/c2ccc(F)cc2)CNC/C1=C\c1ccc(F)cc1" . Is its viability at 24 h, 10 µM below 40%?
Result: NO

Task: Try this compound too: "CC1=C(CN2C/C(=C\c3ccc(F)cc3)C(=O)/C(=C/c3ccc(F)cc3)C2)C(C)(C)N([O])C1(C)C"
Result: NO

Task: // next record "CC1(C)C=C(CN2C/C(=C\c3ccc(F)cc3)C(=O)/C(=C/c3ccc(F)cc3)C2)C(C)(C)N1[O]"
Result: NO

Task: Would you mind doing "CC1(C)c2cnc(CN3C/C(=C\c4ccc(F)cc4)C(=O)/C(=C/c4ccc(F)cc4)C3)cc2C(C)(C)N1[O]" as well?
Result: NO

Task: What about "CC1(C)C=C(CN2C/C(=C\c3ccc(F)cc3)C(=O)/C(=C/c3ccc(F)cc3)C2)CC(C)(C)N1[O]" ?
Result: NO

More entries:
Task: Quick check: does "CC1(C)C=C(CN2C/C(=C\c3ccc(C(F)(F)F)cc3)C(=O)/C(=C/c3ccc(C(F)(F)F)cc3)C2)C(C)(C)N1[O]" have viability at 24 h, 10 µM under 40%?
Result: YES

Task: Check "COc1ccc(/C=C2\CNC/C(=C\c3ccc(OC)c(OC)c3OC)C2=O)c(OC)c1OC" too.
Result: YES

Task: Another compound: "CC1(C)C=C(CN2C/C(=C\c3ccccc3F)C(=O)/C(=C/c3ccccc3F)C2)C(C)(C)N1[O]"
Result: NO

Task: Query "COc1ccc(/C=C2\CN(CC3=CC(C)(C)N([O])C3(C)C)C/C(=C\c3ccc(OC)c(OC)c3OC)C2=O)c(OC)c1OC" next
Result: NO

Task: And then CC1(C)CCC(C)(/C=C/CN2C/C(=C\c3ccc(F)cc3)C(=O)/C(=C/c3ccc(F)cc3)C2)N1[O] (configuration not stated) , what is it?
Result: NO

Task: Follow-up entry: "CC1(C)c2ccc(CN3C/C(=C\c4ccc(F)cc4)C(=O)/C(=C/c4ccc(F)cc4)C3)cc2C(C)(C)N1[O]"
Result: YES

Task: Also need CC1(C)CCC(C)(C#CCN2C/C(=C\c3ccc(F)cc3)C(=O)/C(=C/c3ccc(F)cc3)C2)N1[O] (configuration not stated) , thanks.
Result: NO

Task: Another: "CC1(C)C=C(NC(=O)N2C/C(=C\c3ccc(F)cc3)C(=O)/C(=C/c3ccc(F)cc3)C2)C(C)(C)N1[O]"
Result: YES

Task: Cool, now "CC1(C)C=C(C(=O)N2C/C(=C\c3ccc(F)cc3)C(=O)/C(=C/c3ccc(F)cc3)C2)C(C)(C)N1[O]"
Result: YES

###

In this section we review reported viability at 10 µM values for a set of compounds.
- Test system: MCF7
- assayMethodText: Cytotoxicity against human MCF7 cells assessed as cell viability at 10 uM after 24 hrs by MTT assay relative to control
- Format: functional
- conditionDetails: MCF7, 24 h, read-out: Activity
State just the number; it will be interpreted in %.

Sample answers from the record:
Task: Look up viability at 10 µM: "COc1ccc(/C=C2\CNC/C(=C\c3ccc(OC)c(OC)c3OC)C2=O)c(OC)c1OC"
Result: 56.6

Task: Same question, "CC1(C)C=C(CN2C/C(=C\c3ccc(F)cc3)C(=O)/C(=C/c3ccc(F)cc3)C2)CC(C)(C)N1[O]" this time
Result: 20.1

Task: Request: "CC1=C(CN2C/C(=C\c3ccc(F)cc3)C(=O)/C(=C/c3ccc(F)cc3)C2)C(C)(C)N([O])C1(C)C"
Result: 42

Task: Quick one: "CC1(C)c2cnc(CN3C/C(=C\c4ccc(F)cc4)C(=O)/C(=C/c4ccc(F)cc4)C3)cc2C(C)(C)N1[O]"
Result: 42.7

Task: How about this compound: CC1(C)CCC(C)(/C=C/CN2C/C(=C\c3ccc(F)cc3)C(=O)/C(=C/c3ccc(F)cc3)C2)N1[O] (configuration not stated)
Result: 43.1

Task: Now give it for "CC1(C)C=C(CN2C/C(=C\c3ccc(C(F)(F)F)cc3)C(=O)/C(=C/c3ccc(C(F)(F)F)cc3)C2)C(C)(C)N1[O]" too.
Result: 14.2

Task: Likewise for CC1(C)CCC(C)(C#CCN2C/C(=C\c3ccc(F)cc3)C(=O)/C(=C/c3ccc(F)cc3)C2)N1[O] (configuration not stated) ?
Result: 38.3

Task: Same lookup for "COc1ccc(/C=C2\CN(CC3=CC(C)(C)N([O])C3(C)C)C/C(=C\c3ccc(OC)c(OC)c3OC)C2=O)c(OC)c1OC" , please.
Result: 28

Task: Repeat with "CC1(C)C=C(C(=O)N2C/C(=C\c3ccc(F)cc3)C(=O)/C(=C/c3ccc(F)cc3)C2)C(C)(C)N1[O]"
Result: 12.4

Task: Continue with "O=C1/C(=C/c2ccc(F)cc2)CNC/C1=C\c1ccc(F)cc1"
Result: 17.1

More entries:
Task: Please give the measured viability at 10 µM for this compound: "CC1(C)C=C(CN2C/C(=C\c3ccc(F)cc3)C(=O)/C(=C/c3ccc(F)cc3)C2)C(C)(C)N1[O]"
Result: 16.6

Task: Also "O=C1/C(=C/c2ccccc2F)CNC/C1=C\c1ccccc1F" , if possible.
Result: 34.5

Task: Now consider "O=C1/C(=C/c2ccc(C(F)(F)F)cc2)CNC/C1=C\c1ccc(C(F)(F)F)cc1" .
Result: 20.2

Task: Please answer likewise for "CC1(C)c2ccc(CN3C/C(=C\c4ccc(F)cc4)C(=O)/C(=C/c4ccc(F)cc4)C3)cc2C(C)(C)N1[O]"
Result: 46.2

Task: Also, "CC1(C)C=C(CN2C/C(=C\c3ccc(F)cc3)C(=O)/C(=C/c3ccc(F)cc3)C2)C(C)(C)N1" please.
Result: 28.3

Task: Same for "CC1(C)C=C(NC(=O)N2C/C(=C\c3ccc(F)cc3)C(=O)/C(=C/c3ccc(F)cc3)C2)C(C)(C)N1[O]"
Result: 12.6

Task: And "CC1(C)C=C(CN2C/C(=C\c3ccccc3F)C(=O)/C(=C/c3ccccc3F)C2)C(C)(C)N1[O]" ?
Result: 53.5

###

Below, each entry is listed alongside its reported viability at 10 µM.
- Test system: A2780
- assayMethodText: Cytotoxicity against human A2780 cells assessed as cell viability at 10 uM after 24 hrs by MTT assay relative to control
- Format: functional
- conditionDetails: A2780, 24 h, read-out: Activity
Your answer is read as %, so omit the unit and give the number.

Use these answered entries as a reference point.
Task: Query the reported viability at 10 µM for A2780; item: "CC1(C)C=C(NC(=O)N2C/C(=C\c3ccc(F)cc3)C(=O)/C(=C/c3ccc(F)cc3)C2)C(C)(C)N1[O]"
Result: 5.9

Task: Next molecule: "CC1(C)c2ccc(CN3C/C(=C\c4ccc(F)cc4)C(=O)/C(=C/c4ccc(F)cc4)C3)cc2C(C)(C)N1[O]"
Result: 9.5

Task: One more molecule: "CC1(C)C=C(CN2C/C(=C\c3ccc(F)cc3)C(=O)/C(=C/c3ccc(F)cc3)C2)CC(C)(C)N1[O]"
Result: 6.86

***
Task: Value wanted: viability at 10 µM (A2780) of entry "O=C1/C(=C/c2ccc(F)cc2)CNC/C1=C\c1ccc(F)cc1"
Result: 12.4

###

# viability at 10 µM per record follows
- Tested on: A2780
- assayMethodText: Cytotoxicity against human A2780 cells assessed as cell viability at 10 uM after 24 hrs by MTT assay relative to control
- Format: functional
- conditionDetails: A2780, 24 h, read-out: Activity
// return numeric value only (unit: %, not printed)

As a guide, the following entries are already answered.
Task: I would be grateful if you could share the reported viability at 10 µM for CC1(C)CCC(C)(/C=C/CN2C/C(=C\c3ccc(F)cc3)C(=O)/C(=C/c3ccc(F)cc3)C2)N1[O] (centres undefined) .
Result: 5.81

Task: Field entry: "CC1(C)C=C(CN2C/C(=C\c3ccccc3F)C(=O)/C(=C/c3ccccc3F)C2)C(C)(C)N1[O]"
Result: 12.5

Task: Next record, please: "CC1(C)C=C(CN2C/C(=C\c3ccc(F)cc3)C(=O)/C(=C/c3ccc(F)cc3)C2)C(C)(C)N1"
Result: 4.79

Task: // same read-out, input: "CC1(C)C=C(CN2C/C(=C\c3ccc(F)cc3)C(=O)/C(=C/c3ccc(F)cc3)C2)C(C)(C)N1[O]"
Result: 20.5

Task: "O=C1/C(=C/c2ccc(C(F)(F)F)cc2)CNC/C1=C\c1ccc(C(F)(F)F)cc1" ?
Result: 13.1

More entries:
Task: Endpoint output: viability at 10 µM of "COc1ccc(/C=C2\CNC/C(=C\c3ccc(OC)c(OC)c3OC)C2=O)c(OC)c1OC" . Value?
Result: 11

Task: Request: "CC1(C)C=C(CN2C/C(=C\c3ccc(C(F)(F)F)cc3)C(=O)/C(=C/c3ccc(C(F)(F)F)cc3)C2)C(C)(C)N1[O]"
Result: 5.85

Task: What about "COc1ccc(/C=C2\CN(CC3=CC(C)(C)N([O])C3(C)C)C/C(=C\c3ccc(OC)c(OC)c3OC)C2=O)c(OC)c1OC" ?
Result: 26.1

Task: Could you do the same for "CC1=C(CN2C/C(=C\c3ccc(F)cc3)C(=O)/C(=C/c3ccc(F)cc3)C2)C(C)(C)N([O])C1(C)C" , please?
Result: 6.75

Where do these numbers come from? They come from ChEMBL document CHEMBL1811768.
